molecular target: T1, Recombinant human CD4 (R&D Systems, Cat. 10327-CD) (human, UniProt P01730 26-390, limits assumed); assay: BLI (Octet Red384), non-clonal supernatant on AMC sensor, 100 nM human CD4, 1:1 local fit;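 also: hybridoma antibodies captured from supernatant, single CD4 concentration as analyte, association and dissociation phases fitted together, giving single-point kinetic estimates per supernatant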
T1 construct: Bought soluble recombinant protein used as analyte at 100 nM; also called huCD4
measuredMetric: kon (M⁻¹ s⁻¹)
Numbers only here, please. The scale is M⁻¹ s⁻¹.

Short answer for 75110_07J02A (antibody, V domains shown, Non-clonal AlivaMab Mouse Kappa hybridoma supernatant, captured by anti-mouse IgG Fc (human V regions, mouse Fc)) VH: EVQLVESGGGLVQPGGSLRLSCAASGFTFSSYWMSWVRQAPGKGLEWVANIKEDGSEKYYVDSVKGRFTISRDNAKNSLYLQMNSLRAEDTAVYYCARDGSYSGYGMDVWGQGTTVTVSS VL: AIQMTQSPSSLSASVGDRVTITCRASQGIRNDLGWYQQKPGKAPKLLIYAASSLQSGVPSRFSGRGSGTDFALTISSLQPEDFATYYCLLDYNYPYTFGQGTRLEIK : kon was 68400

Short answer for 75110_02I18A (antibody, V domains shown, Non-clonal AlivaMab Mouse Kappa hybridoma supernatant, captured by anti-mouse IgG Fc (human V regions, mouse Fc)) VH: EVQVVESGGGLVQPGGSLRLSCAASGFTFSSYDMHWVRQATGKGLEWVSTIGTAGDTYYPGSVKGRFTISRENAKNSLYLQMNSLRAGDTAVYYCARGGYYYYGMDVWGQGTTVTVSS VL: EIVLTQSPGTLSLSPGERATLSCRASQSVSSSYLAWYQQKPGQSPRLLIHGASSRATGIPDRVSGSGSGTDFTLTISRLEPEDFAVYYCQQYGSSPFTFGPGTKVDIK : kon was 370000

Short answer for 75110_08K12A (antibody, V domains shown, Non-clonal AlivaMab Mouse Kappa hybridoma supernatant, captured by anti-mouse IgG Fc (human V regions, mouse Fc)) VH: EVQLVESGGGLVQPGGSLRLSCAASGFTFSSYDMHWVRQATGKGLEWVSTIGTAGDTYYPGSVKGRFTISRENAENSLYLQMNSLRAGDTALYYCARGDYYYYGMDVWGQGTTVTVSS VL: EIVLTQSPGTLSLSPGERATLSCRASQSVSSTYLAWYQQKPGQAPRLLIYGASNRATGIPDRFSGSGSGTDFTLTISRLEPEDFAVYYCQQFGTSPFTFGPGTKVDIK : kon was 700000
